Assay: BET inhibitor-based combinations targeting novel dependencies in MECOM-rearranged (r) AML: HNT-34 cell line (AID 2202234); note: nearly all actives have a fitted effect of over 35% in size
Details: HNT-34 AML viability, CellTiter-Glo luminescence, 48 h; series mostly up to 46 µM
Inconclusive results are not listed. Activity calls are given as the source filed them. Calls come from the whole dose curve; as a rule, active = well fitted inhibition curve with a large enough effect; inconclusive = small, poorly fitted or top-dose-only effect; inactive = no such curve, though single readings can be large or run the other way.
Outcome codes: Yes (active), No (inactive)

compound	label
Nc1ccn(C2CO[C@H](CO)O2)c(=O)n1 (some centres undefined)	No
CNC(=O)c1cc(Oc2ccc(NC(=O)Nc3ccc(Cl)c(C(F)(F)F)c3)cc2)ccn1	Yes
O=C(NC[C@H](O)CN1CCc2ccccc2C1)c1ccnc(NC2CCC2)c1	No
Nc1cc(C(F)(F)F)c(-c2cc(N3CCOCC3)nc(N3CCOCC3)n2)cn1	Yes
COC(=O)[C@@H]1[C@H]2C[C@H]3c4[nH]c5ccccc5c4CCN3C[C@@H]2CC[C@@H]1O	No
NC(=NCc1ccccc1)NC(=O)c1nc(Cl)c(N)nc1N	Yes
CN1CCC(COc2cnc(-c3cccc(Cn4nc(-c5cccc(C#N)c5)ccc4=O)c3)nc2)CC1	No
CCCS(=O)(=O)Nc1ccc(F)c(C(=O)c2c[nH]c3ncc(-c4ccc(Cl)cc4)cc23)c1F	Yes
COc1cc(C)c(Sc2cnc(NC(=O)c3ccc(CNC(C)C(C)C)cc3)s2)cc1C(=O)N1CCN(C(C)=O)CC1 (centres undefined)	Yes

* * *

Quick reference for activation among some compounds
Target: Cellular tumor antigen p53 (Homo sapiens)
Assay: Primary qHTS for small molecule compounds that upregulate eGFP-tagged delta133p53alpha (in N-terminal) cells. (AID 2060322); note: nearly all actives have a fitted effect of over 75% in size;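 for activation: cells pre-induced with doxycycline then dosed without doxycycline; 0% = DMSO vehicle and 100% = reference activator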
Details: NCI-H358 eGFP-delta133p53alpha fluorescence, 24 h; hits give high values
Records with an inconclusive call do not appear.
parameter: activation (%)

compound	parameter	experimental_result
C[C@H]1C(=O)N2c3ccccc3[C@@]3(O)C[C@@H]4C(=O)N[C@](C)(c5nc6ccccc6c(=O)n54)N1[C@@H]23	activation	-2.29
COc1cc(O)cc(OC2OC(CO)C(O)C(O)C2O)c1 (stereo not given)	activation	21.4
COc1cc(/C=C/c2ccccc2)c(C(=O)O)c(O)c1CC=C(C)C	activation	-9.82
COc1cc(C(O)C(CO)Oc2ccc(CCCO[C@@H]3O[C@@H](C)[C@H](O)[C@@H](O)[C@H]3O)cc2OC)ccc1O (stereo not given in full)	activation	-13.4
O=C(Nc1ccn[nH]1)c1c(F)cccc1F	activation	12.3

* * *

Biological target: Cellular tumor antigen p53 (Homo sapiens) (UniProt P04637)
Sequence (P04637 whole entry, looked up): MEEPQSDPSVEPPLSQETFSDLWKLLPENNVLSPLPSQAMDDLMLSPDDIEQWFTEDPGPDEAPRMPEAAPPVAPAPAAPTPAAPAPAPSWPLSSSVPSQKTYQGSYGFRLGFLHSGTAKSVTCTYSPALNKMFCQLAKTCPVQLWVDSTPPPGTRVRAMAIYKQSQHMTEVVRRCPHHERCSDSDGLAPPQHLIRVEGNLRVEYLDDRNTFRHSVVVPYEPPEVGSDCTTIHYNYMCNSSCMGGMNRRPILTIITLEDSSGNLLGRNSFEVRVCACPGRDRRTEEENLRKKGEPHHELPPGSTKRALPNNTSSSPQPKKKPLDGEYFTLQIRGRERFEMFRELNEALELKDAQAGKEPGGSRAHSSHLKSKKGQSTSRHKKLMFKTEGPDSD
Assay: Primary qHTS for small molecule compounds that upregulate eGFP-tagged delta133p53alpha (in N-terminal) cells. (AID 2060322); note: nearly all actives have a fitted effect of over 75% in size; note: potency is the fitted concentration of half-maximal effect;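 for activation: cells pre-induced with doxycycline then dosed without doxycycline; 0% = DMSO vehicle and 100% = reference activator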
Details: NCI-H358 eGFP-delta133p53alpha fluorescence, 24 h
Records with an inconclusive call do not appear. Activity calls are given as the source filed them. Calls follow the shape of the dose curve; as a rule, active = well fitted activation curve with a large enough effect; inconclusive = small, poorly fitted or top-dose-only effect; inactive = no such curve, though single readings can be large or run the other way.
Quick reference for Potency among some molecules

molecule	Potency
Cn1ncc(Cl)c1-c1cc(C(=O)N[C@H](CN)Cc2cccc(F)c2)sc1Cl	30.1 µM (active)
CCOC(=O)c1c(N)sc2c1CCN(Cc1ccccc1)C2	15.5 µM (active)
Cn1cc(-c2ccc(S(=O)(=O)n3ccc(/C=C/C(=O)Nc4ccccc4N)c3)cc2)cn1	19 µM (active)
Cn1nc(-c2ccc(C(F)(F)F)cc2)nc2c(=O)n(C)c(=O)nc1-2	4.78 µM (active)
COc1cc2ncnc(Nc3ccc(F)c(Cl)c3)c2cc1NC(=O)/C=C/CN1CCCCC1	9.53 µM (active)
C[C@H](NCc1ccc2c(c1)nc(NC(=O)c1ccc(-c3cn[nH]c3)s1)n2CCc1ccccc1)C(C)(C)C	6.11 µM (active)
COc1cc(NC(=O)c2cccc(-n3cc(NC(=O)Nc4cccc(C)c4)cn3)c2)cc(OC)c1OC	23.9 µM (active)
C=C1C(=O)O[C@@H]2C[C@@H](C)[C@]34C[C@]5(C(=O)O[C@H]6CC(C)=C([C@H](C)CCCO)[C@H](OC(=O)C(C)CC)[C@H]65)[C@@H](C(C)=C3C[C@@H]12)[C@H]4OC(C)=O (stereo partly drawn)	6.3 µM (active)
